Tested on: PCJ (Prostate)
Assay: SRB assay, PCJ
Type: cell-based
Settings: Homo sapiens, 48 h, read-out: LC50
Endpoint Label: CC50 (nM)

INSERT INTO measurements (compound, target_or_test_system, qual, data_value) VALUES
  ('C[C@]12CCC(=NOCCN)CC1CCC1C2CC[C@]2(C)C(=O)CCC12 (some centres unmarked)', 'PCJ (Prostate)', '=', 897),
  ('C[C@@H]1O[C@@H](O[C@H]2C[C@@H](O)[C@]3(CO)[C@H]4[C@H](O)C[C@]5(C)[C@@H](C6=CC(=O)OC6)CC[C@]5(O)[C@@H]4CC[C@]3(O)C2)[C@H](O)[C@H](O)[C@H]1O [Ouabain, reference compound]', 'PCJ (Prostate)', '=', 300),
  ('CC(=O)O[C@H]1C(=O)[C@@]2(C)[C@H]([C@H](OC(=O)c3ccccc3)[C@]3(O)C[C@H](OC(=O)[C@H](O)[C@@H](NC(=O)c4ccccc4)c4ccccc4)C(C)=C1C3(C)C)[C@]1(OC(C)=O)CO[C@@H]1C[C@@H]2O [Paclitaxel, reference compound]', 'PCJ (Prostate)', '>', 10000),
  ('C[C@]12CCC(=NOC3CCNC3)C=C1CCC1C2CC[C@]2(C)C(=O)CCC12 (some centres unmarked)', 'PCJ (Prostate)', '=', 7420),
  ('C[C@]12CCC(=NOC3CCNC3)CC1CCC1C2CC[C@]2(C)C(=O)CCC12 (some centres unmarked)', 'PCJ (Prostate)', '=', 936);

* * *

Endpoint: GI50. System: MCF7 (Breast). Items follow.
Endpoint Label: GI50

INSERT INTO results (compound, data_value) VALUES
  ('C[C@@H]1O[C@@H](O[C@H]2C[C@@H](O)[C@]3(CO)[C@H]4[C@H](O)C[C@]5(C)[C@@H](C6=CC(=O)OC6)CC[C@]5(O)[C@@H]4CC[C@]3(O)C2)[C@H](O)[C@H](O)[C@H]1O [Ouabain, reference compound]', '< 80 nM'),
  ('C[C@H]1O[C@@H](O[C@H]2[C@@H](O)C[C@H](O[C@H]3[C@@H](O)C[C@H](O[C@H]4CC[C@@]5(C)[C@H](CC[C@@H]6[C@@H]5C[C@@H](O)[C@]5(C)[C@@H](C7=CC(=O)OC7)CC[C@]65O)C4)O[C@@H]3C)O[C@@H]2C)C[C@H](O)[C@@H]1O [Digoxin, reference compound]', '< 80 nM'),
  ('CC(=O)O[C@H]1C(=O)[C@@]2(C)[C@H]([C@H](OC(=O)c3ccccc3)[C@]3(O)C[C@H](OC(=O)[C@H](O)[C@@H](NC(=O)c4ccccc4)c4ccccc4)C(C)=C1C3(C)C)[C@]1(OC(C)=O)CO[C@@H]1C[C@@H]2O [Paclitaxel, reference compound]', '< 100 nM');
